Assay: activity coefficient (dimensionless); of the first substance listed, at infinite dilution; xn = mol fraction of the nth substance listed
Conditions: 368.15 K; 101 kPa; Liquid; Chromatography; x1 = 0
Assign 1 (yes) to entries whose activity coefficient meets or exceeds 20; assign 0 (no) to the rest.

# compound, category
measured = [
    ("CCCCCCCC [octane] + CCCC[N+]1(C)CCOCC1.N#C[C-](C#N)C#N", "1 (yes)"),
    ("CCC(C)(C)OC [2-methoxy-2-methylbutane] + CCCC[N+]1(C)CCOCC1.N#C[C-](C#N)C#N", "0 (no)"),
    ("CCOC(C)(C)C [2-ethoxy-2-methylpropane] + CCCC[N+]1(C)CCOCC1.N#C[C-](C#N)C#N", "0 (no)"),
    ("CCCCCC [hexane] + CCCC[N+]1(C)CCOCC1.N#C[C-](C#N)C#N", "1 (yes)"),
    ("CC(C)(C)O [2-methylpropan-2-ol] + CCCC[N+]1(C)CCOCC1.N#C[C-](C#N)C#N", "0 (no)"),
    ("CCOC(C)=O [ethyl acetate] + CCCC[N+]1(C)CCOCC1.N#C[C-](C#N)C#N", "0 (no)"),
    ("C1CCCCC1 [cyclohexane] + CCCC[N+]1(C)CCOCC1.N#C[C-](C#N)C#N", "0 (no)"),
    ("CC1CCCCC1 [methylcyclohexane] + CCCC[N+]1(C)CCOCC1.N#C[C-](C#N)C#N", "1 (yes)"),
    ("CC(C)CO [2-methyl-1-propanol] + CCCC[N+]1(C)CCOCC1.N#C[C-](C#N)C#N", "0 (no)"),
    ("CCC(=O)CC [pentan-3-one] + CCCC[N+]1(C)CCOCC1.N#C[C-](C#N)C#N", "0 (no)"),
    ("C#CCCC [1-pentyne] + CCCC[N+]1(C)CCOCC1.N#C[C-](C#N)C#N", "0 (no)"),
    ("CCCCCCC [heptane] + CCCC[N+]1(C)CCOCC1.N#C[C-](C#N)C#N", "1 (yes)"),
    ("C=Cc1ccccc1 [styrene] + CCCC[N+]1(C)CCOCC1.N#C[C-](C#N)C#N", "0 (no)"),
    ("CCCC=O [butanal] + CCCC[N+]1(C)CCOCC1.N#C[C-](C#N)C#N", "0 (no)"),
    ("C#CCCCCC [1-heptyne] + CCCC[N+]1(C)CCOCC1.N#C[C-](C#N)C#N", "0 (no)"),
    ("Cc1ccc(C)cc1 [1,4-dimethylbenzene] + CCCC[N+]1(C)CCOCC1.N#C[C-](C#N)C#N", "0 (no)"),
    ("c1ccccc1 [benzene] + CCCC[N+]1(C)CCOCC1.N#C[C-](C#N)C#N", "0 (no)"),
]
